Reported IC50 by item:
target_or_test_system: human PDE9A2 (Homo sapiens, UniProt O76083)
Construct: made in house; host or cells: Sf9 insect cells (infected); crude lysate used as enzyme source
Sequence (O76083 1-533 isoform O76083-2): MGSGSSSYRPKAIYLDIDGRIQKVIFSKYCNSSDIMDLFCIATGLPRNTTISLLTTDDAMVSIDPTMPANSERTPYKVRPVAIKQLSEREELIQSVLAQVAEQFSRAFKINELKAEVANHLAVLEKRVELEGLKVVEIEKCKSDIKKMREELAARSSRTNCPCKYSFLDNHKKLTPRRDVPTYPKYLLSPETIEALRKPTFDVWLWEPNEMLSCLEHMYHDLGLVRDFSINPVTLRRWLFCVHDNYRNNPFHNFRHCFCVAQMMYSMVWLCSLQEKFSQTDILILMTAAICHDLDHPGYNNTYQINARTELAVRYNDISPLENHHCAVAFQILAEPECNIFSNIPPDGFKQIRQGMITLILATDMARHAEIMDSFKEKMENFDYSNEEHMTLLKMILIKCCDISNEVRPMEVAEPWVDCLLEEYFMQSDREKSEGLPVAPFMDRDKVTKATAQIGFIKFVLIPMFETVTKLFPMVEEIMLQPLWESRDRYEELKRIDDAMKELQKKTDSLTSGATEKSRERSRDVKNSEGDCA
test_name: PDE9A2 enzymatic activity assay (scintillation proximity assay, SPA)
Type: biochemical
run_parameters: reported only as range 1-100 or 101-1200 nanomolar; specific value lies within range; read-out: IC50 within range [nanomolar (nM)]

Answered cases to consult:
CC(=O)N1CCCC(n2ncc3c(=O)[nH]c(Cc4ccccc4)nc32)C1 (racemic) [Example 158]; 1 to 100 nM
O=c1[nH]c(Cc2ccccc2O[C@@H]2CCOC2)nc2c1cnn2C1CCOCC1 [Example 57]; 1 to 100 nM
O=c1[nH]c(CC2CCC(F)(F)CC2)nc2c1cnn2C1CCOCC1 [Example 40-6]; 1 to 100 nM
CCC(C)Cc1nc2c(cnn2C2CCOC2)c(=O)[nH]1 (mixture of isomers) [Example 84]; 1 to 100 nM
O=c1[nH]c(Cc2ccc(F)c(Cl)c2)nc2c1cnn2C1CCOC1 (racemic) [Example 71]; 1 to 100 nM
O=c1[nH]c(Cc2ccccc2C(F)(F)F)nc2c1cnn2C1CCOCC1 [Example 45]; 1 to 100 nM

QUERY: Print human PDE9A2 (Homo sapiens, UniProt O76083) IC50 for O=C(c1ccccc1)N1CCCC(n2ncc3c(=O)[nH]c(Cc4ccccc4F)nc32)C1 (racemic) [Example 186] .
RESULT: 1 to 100 nM

QUERY: Print human PDE9A2 (Homo sapiens, UniProt O76083) IC50 for CC(C)(C)OC(=O)N1CCCC(n2ncc3c(=O)[nH]c(Cc4ccccc4OC(F)(F)F)nc32)C1 (racemic) [Example 19] .
RESULT: 1 to 100 nM

QUERY: Print human PDE9A2 (Homo sapiens, UniProt O76083) IC50 for O=c1[nH]c(Cc2ccccc2OC(F)(F)F)nc2c1cnn2C1CCNCC1 [Example 203] .
RESULT: 101 to 1200 nM

QUERY: Print human PDE9A2 (Homo sapiens, UniProt O76083) IC50 for CCCc1nc2c(cnn2C2CCOCC2)c(=O)[nH]1 [Example 29] .
RESULT: 1 to 100 nM

QUERY: Print human PDE9A2 (Homo sapiens, UniProt O76083) IC50 for CC(=O)N1CCCC(n2ncc3c(=O)[nH]c(CC(C)C)nc32)C1 (racemic) [Example 189] .
RESULT: 101 to 1200 nM
